Assay: clinical
Details: male, human, in vivo, po, 64 mg
Protocol: Two randomized, double-blind, placebo controlled, rising dose, crossover studies evaluated the single-dose pharmacokinetics of oral cilansetron over a 4 mg to 64 mg dose range. […] Data for the evaluation of dose proportionality of oral cilansetron is available from three studies which have evaluated the pharmacokinetics of single doses over a 2 mg to 64 mg dose range. […]
observed_property: AUC(0-inf) (ng·h/mL)

INSERT INTO assay_data (smiles_data, meas_value) VALUES
  ('Cc1nccn1C[C@H]1CCc2c(c3cccc4c3n2CCC4)C1=O', 813);

* * *

Assay: clinical
Type: in vivo, human
Settings: both sexes, human, in vivo
observed_property: AUC (ng·h/mL)

INSERT INTO measurements (smiles_data, units_symbol, meas_value) VALUES
  ('Cc1nccn1C[C@H]1CCc2c(c3cccc4c3n2CCC4)C1=O', 'ng·h/mL', 360);

* * *

Assay: clinical
Conditions: male, human, in vivo, iv, Cmax
observed_property: Cmax (ng/mL)

INSERT INTO measurements (smiles_data, units_symbol, meas_value) VALUES
  ('Cc1nccn1C[C@H]1CCc2c(c3cccc4c3n2CCC4)C1=O', 'ng/mL', 149);

* * *

Test: clinical
Settings: male, human, in vivo, po, 8 mg, Tmax
observed_property: Tmax (h)

INSERT INTO assay_data (smiles_data, meas_value) VALUES
  ('Cc1nccn1C[C@H]1CCc2c(c3cccc4c3n2CCC4)C1=O', 1);

* * *

Experiment: clinical
Conditions: female, human, in vivo, po, 16 mg
observed_property: Tmax (h)

INSERT INTO measurements (molecule, meas_value) VALUES
  ('Cc1nccn1C[C@H]1CCc2c(c3cccc4c3n2CCC4)C1=O [Cilansetron]', 1);

* * *

Assay: clinical
Conditions: both, human, in vivo, 32 mg, Cmax
observed_property: Cmax (ng/mL)

INSERT INTO assay_data (smiles_data, observed_property, meas_value) VALUES
  ('Cc1nccn1C[C@H]1CCc2c(c3cccc4c3n2CCC4)C1=O', 'Cmax', 216);

* * *

Test: clinical
Conditions: male, human, in vivo, iv, 16 mg
observed_property: AUC(0-inf) (ng·h/mL)

INSERT INTO results (smiles_data, observed_property, meas_value) VALUES
  ('Cc1nccn1C[C@H]1CCc2c(c3cccc4c3n2CCC4)C1=O', 'AUC(0-inf)', 525);

* * *

Test: Study S.241.1.103: 14C mass balance, 8 mg oral and IV
Format: in vivo, human
Conditions: male, human, in vivo, po
observed_property: AUC(0-t) (ng·h/mL)

INSERT INTO assay_data (compound, units_symbol, meas_value) VALUES
  ('Cc1nccn1C[C@H]1CCc2c(c3cccc4c3n2CCC4)C1=O [Cilansetron]', 'ng·h/mL', 91.4);

* * *

Assay: clinical
Conditions: male, human, in vivo, po, 8 mg
observed_property: Tmax (h)

INSERT INTO assay_data (molecule, meas_value) VALUES
  ('Cc1nccn1C[C@H]1CCc2c(c3cccc4c3n2CCC4)C1=O [Cilansetron]', 1);

* * *

Test: clinical
Settings: both, human, in vivo, po, 8 mg, T½
observed_property: half-life (h)

INSERT INTO measurements (compound, observed_property, meas_value) VALUES
  ('Cc1nccn1C[C@H]1CCc2c(c3cccc4c3n2CCC4)C1=O [Cilansetron]', 'half-life', 8.16);

* * *

Experiment: clinical
Details: male, human, in vivo, po, 32 mg, Cmax
observed_property: Cmax (ng/mL)

INSERT INTO assay_data (smiles_data, observed_property, units_symbol, meas_value) VALUES
  ('Cc1nccn1C[C@H]1CCc2c(c3cccc4c3n2CCC4)C1=O', 'Cmax', 'ng/mL', 161);

* * *

Experiment: clinical
Settings: male, human, in vivo, po, 8 mg
observed_property: AUC(0-t) (ng·h/mL)

INSERT INTO results (smiles_data, observed_property, meas_value) VALUES
  ('Cc1nccn1C[C@H]1CCc2c(c3cccc4c3n2CCC4)C1=O', 'AUC(0-t)', 55.5);

* * *

Experiment: clinical
Settings: male, human, in vivo, 8 mg, AUC
observed_property: AUC (ng·h/mL)

INSERT INTO assay_data (compound, meas_value) VALUES
  ('Cc1nccn1C[C@H]1CCc2c(c3cccc4c3n2CCC4)C1=O [Cilansetron]', 74.5);

* * *

Experiment: clinical
Settings: male, human, in vivo, po, 64 mg
observed_property: Cmax (ng/mL)

INSERT INTO assay_data (compound, meas_value) VALUES
  ('Cc1nccn1C[C@H]1CCc2c(c3cccc4c3n2CCC4)C1=O [Cilansetron]', 349);

* * *

Assay: clinical
Conditions: male, human, in vivo, po, 8 mg, CLr
observed_property: CL renal

INSERT INTO measurements (smiles_data, meas_value) VALUES
  ('Cc1nccn1C[C@H]1CCc2c(c3cccc4c3n2CCC4)C1=O', '2.92 mL/min');

* * *

Test: clinical
Conditions: male, human, in vivo, po, 32 mg
observed_property: half-life (h)

INSERT INTO measurements (smiles_data, observed_property, meas_value) VALUES
  ('Cc1nccn1C[C@H]1CCc2c(c3cccc4c3n2CCC4)C1=O', 'half-life', 1.28);

* * *

Assay: clinical
Details: both, human, in vivo, 16 mg, T½
observed_property: half-life (h)

INSERT INTO results (smiles_data, observed_property, meas_value) VALUES
  ('Cc1nccn1C[C@H]1CCc2c(c3cccc4c3n2CCC4)C1=O', 'half-life', 1.3);

* * *

Test: clinical
Details: female, human, in vivo, 16 mg
observed_property: Vd/F (L)

INSERT INTO assay_data (compound, meas_value) VALUES
  ('Cc1nccn1C[C@H]1CCc2c(c3cccc4c3n2CCC4)C1=O [Cilansetron]', 202);

* * *

Test: clinical
Details: male, human, in vivo, iv, 16 mg
observed_property: clearance (mL/min)

INSERT INTO results (smiles_data, observed_property, meas_value) VALUES
  ('Cc1nccn1C[C@H]1CCc2c(c3cccc4c3n2CCC4)C1=O', 'clearance', 564);

* * *

Assay: clinical
Settings: both, human, in vivo, 8 mg, Cmax
observed_property: Cmax (ng/mL)

INSERT INTO assay_data (molecule, meas_value) VALUES
  ('Cc1nccn1C[C@H]1CCc2c(c3cccc4c3n2CCC4)C1=O [Cilansetron]', 43.3);

* * *

Experiment: clinical
Details: male, human, in vivo, iv, Vss
observed_property: Vd (L)

INSERT INTO measurements (smiles_data, meas_value) VALUES
  ('Cc1nccn1C[C@H]1CCc2c(c3cccc4c3n2CCC4)C1=O', 56);

* * *

Test: clinical
Conditions: male, human, in vivo, 16 mg
observed_property: half-life (h)

INSERT INTO assay_data (compound, meas_value) VALUES
  ('Cc1nccn1C[C@H]1CCc2c(c3cccc4c3n2CCC4)C1=O [Cilansetron]', 1.75);

* * *

Experiment: clinical
Details: female, human, in vivo, 8 mg, AUC
observed_property: AUC

INSERT INTO measurements (smiles_data, observed_property, meas_value) VALUES
  ('Cc1nccn1C[C@H]1CCc2c(c3cccc4c3n2CCC4)C1=O', 'AUC', '104 ng·h/mL');

* * *

System: serum proteins
Experiment: in vitro
Conditions: both, human, plasma, Plasma protein bound
observed_property: fraction unbound

INSERT INTO measurements (smiles_data, observed_property, meas_value) VALUES
  ('Cc1nccn1C[C@H]1CCc2c(c3cccc4c3n2CCC4)C1=O', 'fraction unbound', '~0.04');

* * *

Test: Study S.241.1.104: Ortho Tri-Cyclen pharmacokinetics with cilansetron 2 mg TID
Type: in vivo, human
Details: female, human, plasma, oral, ORC + Placebo; Day 21; arith. mean; read-out: AUC(0-τ)
observed_property: AUC (ng·h/mL)

INSERT INTO results (molecule, meas_value) VALUES
  ('C#C[C@]1(O)CC[C@H]2[C@@H]3CCc4cc(O)ccc4[C@H]3CC[C@@]21C [EE, ethinyl estradiol]', 1.32);

* * *

Assay: clinical
Conditions: female, human, in vivo, 32 mg, AUC
observed_property: AUC (ng·h/mL)

INSERT INTO measurements (compound, meas_value) VALUES
  ('Cc1nccn1C[C@H]1CCc2c(c3cccc4c3n2CCC4)C1=O [Cilansetron]', 405);

* * *

Experiment: Study S.241.1.109: single and multiple dose pharmacokinetics 2 mg TID
Format: in vivo, human
Details: both sexes, human, in vivo, 2 mg, Cmax
Protocol: In an open-label, randomized, parallel-group study in 36 healthy, male and female subjects (19-45 years), subjects received a 2 mg single dose of cilansetron on Day 1 and 2 mg TID on Days 2-7. The morning doses on Days 1 and 7 were administered immediately after a standard breakfast. […]
observed_property: Cmax at 7 day

INSERT INTO assay_data (smiles_data, observed_property, meas_value) VALUES
  ('Cc1nccn1C[C@H]1CCc2c(c3cccc4c3n2CCC4)C1=O', 'Cmax at 7 day', '7.55 ng/mL');
